Assay: Cytotoxicity CPE assay (neutral red), BEAS2B
Assay type: cell-based
Conditions: human, BEAS2B cells, mean ± S.E.
Residues, ends and D or L forms follow the SMILES beside them.
CC50 at 48 h values by entry

[
  {
    "MOLECULE": "CSCC[C@@H](C=O)NC(=O)[C@H](CC(C)C)NC(=O)[C@H](CC(C)C)NC(C)=O [Calpain inhibitor II (61), Calpain inhibitor II] (Ac-Leu-Leu-Met-aldehyde)",
    "EXPERIMENTAL ENDPOINT": "CC50 at 48 h",
    "RESULT": "> 100 µM"
  },
  {
    "MOLECULE": "CCC[C@H](NC(=O)[C@H](CC(C)C)NC(=O)OCc1ccccc1)C(=O)C(=O)NCc1ccccn1 [Calpain inhibitor XII (62), Calpain inhibitor XII]",
    "EXPERIMENTAL ENDPOINT": "CC50 at 48 h",
    "RESULT": "78.9 µM"
  }
]

Proceed to the following item.
Query block: Quick check: CC50 at 48 h of CC(C)C[C@H](NC(=O)OCc1ccccc1)C(=O)N[C@@H](C[C@@H]1CCNC1=O)C(O)S(=O)(=O)[O-].[Na+] (stereo partly drawn) [GC-376 (64), GC-376] ?
Result block: > 100 µM

* * *

Assay: Cytotoxicity CPE assay (neutral red), A549
Type: cell-based
Conditions: human, A549 cells, mean ± S.E.
Residues, ends and D or L forms follow the SMILES beside them.
EXPERIMENTAL ENDPOINT: CC50 at 48 h

[
  {
    "MOLECULE": "CSCC[C@@H](C=O)NC(=O)[C@H](CC(C)C)NC(=O)[C@H](CC(C)C)NC(C)=O [Calpain inhibitor II (61), Calpain inhibitor II] (Ac-Leu-Leu-Met-aldehyde)",
    "RESULT": "> 100 µM"
  }
]

Query block: Quick check: CC50 at 48 h of CC(C)C[C@H](NC(=O)OCc1ccccc1)C(=O)N[C@@H](C[C@@H]1CCNC1=O)C(O)S(=O)(=O)[O-].[Na+] (stereo partly drawn) ?
Result block: > 100 µM

Query block: Quick check: CC50 at 48 h of CCC[C@H](NC(=O)[C@H](CC(C)C)NC(=O)OCc1ccccc1)C(=O)C(=O)NCc1ccccn1 ?
Result block: > 100 µM

* * *

pIC50: −log10 of the molar value. Non-standard residues stand in square brackets, D forms with d. Residues, ends and D or L forms follow the SMILES beside them. Nle = CCCC[C@H](N)C(=O)O
Form: system (EV-A71 3C protease (Human enterovirus 71)), quantity (pIC50), values below.

Some compounds with known pIC50 results, for comparison:
[
  {
    "COMPOUND": "CCCC[C@@H](C=O)NC(=O)[C@H](CC(C)C)NC(=O)[C@H](CC(C)C)NC(C)=O [Calpain inhibitor 1 (ALLN) (59), Calpain inhibitor 1] (Ac-Leu-Leu-[Nle]-aldehyde)",
    "pIC50": "< 4.70"
  },
  {
    "COMPOUND": "CCCC[C@@H](C=O)NC(=O)[C@H](CC(C)C)NC(=O)OCc1ccccc1",
    "pIC50": "< 4.70"
  }
]

Proceed to the following item.
Query block: Given the entry CC(C)C[C@H](NC(=O)OCc1ccccc1)C(=O)N[C@@H](C[C@@H]1CCNC1=O)C(O)S(=O)(=O)[O-].[Na+] (stereo partly drawn) , what pIC50 was observed with EV-A71 3C protease (Human enterovirus 71)?
Result block: 6.87
